Measured protein stability index by item
assay: protein stability index of a GFP-peptide fusion (GPS, HEK-293T) (PSI 1-6); higher = more stable; conditions: treatment: MLN4924 1 uM, 8 h; c terminus: a fixed tail appended;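 also: 24-mer peptide tiles fused after GFP, lentivirally expressed, FACS-sorted into six equal bins by GFP/DsRed ratio, decoded by Illumina sequencing, PSI is the read-weighted mean bin number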
Give the value as a plain number.

Consider the worked cases shown below.
1) AKFWPRRRFNFFVLENNLEAVARH [DNAAF3]
2.09
2) HLTVHKRIHTGERPYMCKECGKAF [ZNF8]
3.27
3) PRSHFTTPAPMSSAWKTVACGGTR [MYBL2]
2.84

Then this sequence:
response.value for SSNGNDNGNGKNGGLEHVPSSSSI [BNIP3L] (field: protein stability index) = 5.33
